Each recorded value in this set is attributed to ChEMBL document CHEMBL1140464.

pKi data for Tyrosine-protein kinase SYK (Homo sapiens) follow.
pKi: −log10 of the molar value.

| Chemical string | Property name | Reported |
| --- | --- | --- |
| COc1cc2c(N[C@@H]3C[C@H]3c3ccccc3)c(C#N)cnc2cc1OCCCN1CCOCC1 | pKi | < 5.00 |
| COc1ccc2ncc(C#N)c(N[C@@H]3C[C@H]3c3ccccc3)c2c1 | pKi | < 5.00 |
| COc1cc2c(N[C@@H]3C[C@H]3c3ccccc3)c(C#N)cnc2cc1OC1CCN(C)CC1 | pKi | < 5.00 |
| N#Cc1cnc2ccc(-c3cccc(CN4CCOCC4)c3)cc2c1N[C@@H]1C[C@H]1c1ccccc1 | pKi | < 5.00 |

Would you kindly look at the next entry?
Q. Look up and report measured pKi (Tyrosine-protein kinase SYK (Homo sapiens)) for the following molecule: "COc1cc2ncc(C#N)c(N[C@@H]3C[C@H]3c3ccccc3)c2cc1OCCN1CCOCC1"
A. < 5.00
